Form field: Anti-aPC IC50 (nM), Amidolytic activity (one value per entry).
target: rabbit activated Protein C (rabbit) (UniProt Q28661); assay: cell-based or functional assay
readout_name: Anti-aPC IC50 (nM), Amidolytic activity

{"binder": "C7I7 hIgG1 (antibody, V domains shown, also called C717-IgG) VH: EVQLLESGGGLVQPGGSLRLSCAASGFTFGNHWMTWVRQAPGKGLEWVSGVSWNGSRTHYADSVKGRFTISRDNSKNTLYLQMNSLRAEDTAVYYCALTGRSGWMRFPNWFDPWGQGTLVTVTS VL: QSVLTQPPSASGTPGQRVTISCTGSSSNIGAGYDVHWYQQLPGTAPKLLIYGNSNRPSGVPDRFSGSKSGTSASLAISGLRSEDEAAYYCSSYVGSDLVVFGGGTKLTVLG", "readout_name": "Anti-aPC IC50 (nM), Amidolytic activity", "experimental_result": 29}
{"binder": "C7A23 hIgG1 (antibody, V domains shown, also called C7A23-IgG) VH: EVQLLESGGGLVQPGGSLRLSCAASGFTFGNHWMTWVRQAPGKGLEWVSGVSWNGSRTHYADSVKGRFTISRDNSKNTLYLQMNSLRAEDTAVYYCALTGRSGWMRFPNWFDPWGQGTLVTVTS VL: QSVLTQPPSASGTPGQRVTISCSGSSSNIGNNYVSWYQQLPGTAPKLLIYRNNQRPSGVPDRFSGSKSGTSASLAISGLRSEDEADYYCQSYDSDLSGPYVLFGGGTKLTVLG", "readout_name": "Anti-aPC IC50 (nM), Amidolytic activity", "experimental_result": 25}
{"binder": "T46J23-hIgG1 (antibody, V domains shown, also called T46J23-IgG) VH: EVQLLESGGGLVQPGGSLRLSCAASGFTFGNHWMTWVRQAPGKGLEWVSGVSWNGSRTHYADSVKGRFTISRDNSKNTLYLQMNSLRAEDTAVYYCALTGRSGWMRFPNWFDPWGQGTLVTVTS VL: LTQPPSASGTPGQRVTISCTGTSSNIGAGYDVHWYQQLPGTAPKLLIYDNNNRPSGVPDRFSGSKSGTSASLAISGLRSEDEADYYCAAWDDSLNGVVFGGGTKLTVLG", "readout_name": "Anti-aPC IC50 (nM), Amidolytic activity", "experimental_result": 17}
{"binder": "C22J13 hIgG1 (antibody, V domains shown) VH: EVQLLESGGGLVQPGGSLRLSCAASGFTFSSNYMSWVRQAPGKGLEWVAVISYDGSNKYYADSVKGRFTISRDNSKNTLYLQMNSLRAEDTAMYYCALTGRSGWMRFPNWFDPWGQGTLVTVTS VL: QSVLTQPPSASGTPGQRVTISCSGSDSNIGSNAVNWYQQLPGTAPKLLIYDNNKRPSGVPDRFSGSKSGTSASLAISGLRSEDEADYYCSSYTSSNTVVFGGGTKLTVLG", "readout_name": "Anti-aPC IC50 (nM), Amidolytic activity", "experimental_result": 24}

Origin of values: patent US20150307625A1
